Provenance of the data: patent US20250243171A1

# tested on: Ba/F3 stable cells (Homo sapiens, UniProt P00533, INS763FQEA, cells depend on it)
# Construct: EC50 Ba/F3-EGFR A763-Y764insFQEA; other: Ba/F3-EGFR A763-Y764insFQEA cells, 72 h, CCK-8
# Sequence (P00533 with tags, fused parts or gaps INS763FQEA): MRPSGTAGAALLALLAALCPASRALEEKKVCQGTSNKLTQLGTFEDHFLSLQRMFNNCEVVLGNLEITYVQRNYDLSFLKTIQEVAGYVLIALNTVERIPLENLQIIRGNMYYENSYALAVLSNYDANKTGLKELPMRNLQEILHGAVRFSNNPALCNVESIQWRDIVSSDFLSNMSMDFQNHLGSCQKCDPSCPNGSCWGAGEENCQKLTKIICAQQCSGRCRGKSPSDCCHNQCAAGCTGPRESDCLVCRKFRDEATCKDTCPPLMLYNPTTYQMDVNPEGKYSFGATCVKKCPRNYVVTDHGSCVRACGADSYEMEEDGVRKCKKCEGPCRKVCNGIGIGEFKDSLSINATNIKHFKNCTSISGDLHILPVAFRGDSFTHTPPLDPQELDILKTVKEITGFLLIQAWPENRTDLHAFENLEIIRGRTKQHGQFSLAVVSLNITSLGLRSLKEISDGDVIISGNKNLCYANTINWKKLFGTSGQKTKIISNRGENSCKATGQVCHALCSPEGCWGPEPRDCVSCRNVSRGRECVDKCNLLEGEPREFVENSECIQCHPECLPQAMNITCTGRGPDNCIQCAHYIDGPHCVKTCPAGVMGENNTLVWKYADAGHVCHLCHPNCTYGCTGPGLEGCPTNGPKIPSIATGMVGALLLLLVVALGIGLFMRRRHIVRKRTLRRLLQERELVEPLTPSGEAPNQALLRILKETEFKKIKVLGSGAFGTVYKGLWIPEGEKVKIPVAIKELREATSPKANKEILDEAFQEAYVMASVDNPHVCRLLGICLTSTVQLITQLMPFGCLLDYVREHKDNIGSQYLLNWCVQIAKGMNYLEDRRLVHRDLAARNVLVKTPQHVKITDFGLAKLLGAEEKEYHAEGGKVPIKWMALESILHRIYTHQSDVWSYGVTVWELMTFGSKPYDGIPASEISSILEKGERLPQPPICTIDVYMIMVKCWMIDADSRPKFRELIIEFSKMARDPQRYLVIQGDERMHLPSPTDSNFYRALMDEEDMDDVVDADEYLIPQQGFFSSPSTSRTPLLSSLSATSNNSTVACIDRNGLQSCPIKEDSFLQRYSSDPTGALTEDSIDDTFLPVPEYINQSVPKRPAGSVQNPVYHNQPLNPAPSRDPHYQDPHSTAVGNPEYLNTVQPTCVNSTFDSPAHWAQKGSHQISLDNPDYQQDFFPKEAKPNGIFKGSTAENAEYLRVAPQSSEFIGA
# experiment summary: EC50 assay: Ba/F3 stable cell proliferation (CCK-8, 72 h)
# measurement context: Ba/F3-EGFR A763-Y764insFQEA cells
Each entry below carries its reported EC50.

{"columns": ["compound", "EC50"],
 "data": [
  ["C=CC(=O)NC1CC(Oc2cc3c(Nc4ccc5c(c4)CCCC5O)ncnc3cc2OC)C1 (centres unmarked) [Compound 71]", "> 1000 nM"],
  ["C=CS(=O)(=O)N1CCC(Oc2cc3c(Nc4ccc(Cl)c(Cl)c4F)ncnc3cc2OC)CC1 [Compound 192]", "≤ 200 nM"],
  ["C=CC(=O)N1CCC(Oc2cc3c(NCc4ccc(Cl)c(Cl)c4)ncnc3cc2OC)CC1 [Compound 115]", "≤ 200 nM"],
  ["C=CC(=O)N1CCCC(c2ccc3ncnc(Nc4ccc(Cl)c(Cl)c4F)c3c2)C1 (centres unmarked) [Compound 184]", "≤ 200 nM"],
  ["C=CC(=O)N1CCC(Oc2cc3c(C(=O)c4ccc(Cl)c(Cl)c4F)ncnc3cc2OC)CC1 [Compound 175]", "≤ 200 nM"],
  ["C=CC(=O)N1CCC(Oc2cc3c(Nc4ccc5ncsc5c4)ncnc3cc2OC)CC1 [Compound 145]", "≤ 200 nM"],
  ["C=CC(=O)N1CCC(Oc2cc3c(NCc4ccccc4Cl)ncnc3cc2OC)CC1 [Compound 110]", "≤ 200 nM"],
  ["C=CC(=O)N[C@H]1C[C@H](Oc2cc3c(Nc4ccc(Cl)c(Cl)c4F)ncnc3cc2OC)C1 [Compound 79]", "≤ 200 nM"],
  ["C=CC(=O)N1CCC(Oc2cc3c(Nc4cccc5cccnc45)ncnc3cc2OC)CC1 [Compound 146]", "≤ 200 nM"],
  ["C=CC(=O)N1CCC(Oc2c(OC)cc3ncnc4c3c2C=CN4c2ccc(Cl)c(Cl)c2F)CC1 [Compound 218]", "≤ 200 nM"],
  ["C=CC(=O)N1CC(c2cc3c(Nc4cccc5ccccc45)ncnc3cc2OC)C1 [Compound 4]", "≤ 200 nM"],
  ["C=CC(=O)N1CCC(Oc2cc3c(N[C@H](C)c4ccc(F)cc4)ncnc3cc2OC)CC1 [Compound 173]", "≤ 200 nM"],
  ["C=CC(=O)N1CC(c2cc3c(Nc4ccc(Cl)c(Cl)c4F)ncnc3cc2O[C@H]2CCOC2)C1 [Compound 24]", "200 to 1000 nM"],
  ["C#CC(=O)N[C@H]1C[C@@H](Oc2cc3c(Nc4cccc5c4CCC5)ncnc3cc2OC)C1 [Compound 45]", "≤ 200 nM"],
  ["C=CC(=O)N1CCC(Oc2cc3c(Nc4ccc5c(c4)CCN5)ncnc3cc2OC)CC1 [Compound 168]", "≤ 200 nM"],
  ["C=CC(=O)N1CCC(Oc2c(OC)cc3ncnc4c3c2NC(=O)N4c2ccc(Cl)c(Cl)c2)CC1 [Compound 215]", "≤ 200 nM"],
  ["C=CC(=O)N1CC(c2cc3c(Nc4ccc(F)c(Cl)c4F)ncnc3cc2O[C@H]2CCOC2)C1 [Compound 33]", "≤ 200 nM"],
  ["C#CC(=O)N1CCC=C(c2ccc3ncnc(Nc4ccc(Cl)c(Cl)c4F)c3c2)C1 [Compound 62]", "≤ 200 nM"],
  ["C=CC(=O)NC1CC(Nc2cc3c(Nc4ccc(Cl)c(Cl)c4F)ncnc3cc2OC)C1 (centres unmarked) [Compound 92]", "≤ 200 nM"],
  ["C#CC(=O)N1C2CCC1CC(Oc1cc3c(Nc4cccc5ccccc45)ncnc3cc1OC)C2 (centres unmarked) [Compound 60]", "≤ 200 nM"],
  ["C#CC(=O)N1C2CCC1CC(Oc1cc3c(Nc4ccc5ccccc5c4)ncnc3cc1OC)C2 (centres unmarked) [Compound 59]", "≤ 200 nM"],
  ["C=CC(=O)N1CCC(Oc2cc3c(NC(CC(=O)O)c4cccc(Cl)c4)ncnc3cc2OC)CC1 (centres unmarked) [Compound 129]", "> 1000 nM"],
  ["C=CC(=O)N1CCC(Oc2cc3c(Nc4ccc5ccccc5c4Cl)ncnc3cc2OC)CC1 [Compound 160]", "≤ 200 nM"],
  ["C#CC(=O)N[C@H]1C[C@H](Oc2cc3c(Nc4ccc5ccccc5c4)ncnc3cc2OC)C1 [Compound 48]", "≤ 200 nM"],
  ["C=CC(=O)NC1CC(Oc2cc3c(Nc4ccc5c(c4)CCCC5=O)ncnc3cc2OC)C1 (centres unmarked) [Compound 70]", "> 1000 nM"],
  ["C=CC(=O)N1CCC(Oc2cc3c(Nc4cc5ccccc5cn4)ncnc3cc2OC)CC1 [Compound 159]", "≤ 200 nM"],
  ["C=CC(=O)N1CCC(Oc2c(OC)cc3ncnc4c3c2NC(=O)N4c2ccc(Cl)c(Cl)c2F)C1 (centres unmarked) [Compound 205]", "200 to 1000 nM"],
  ["C=CC(=O)N1CCC(Oc2cc3c(Nc4cccc5cn[nH]c45)ncnc3cc2OC)CC1 [Compound 139]", "≤ 200 nM"],
  ["C=CC(=O)N1CCC(Oc2cc3c(Nc4ccc5nccnc5c4)ncnc3cc2OC)CC1 [Compound 144]", "200 to 1000 nM"],
  ["C=CC(=O)N[C@H]1C[C@@H](Oc2cc3c(Nc4cccc5ccccc45)ncnc3cc2OC)C1 [Compound 83]", "≤ 200 nM"],
  ["C=CC(=O)N[C@H]1C[C@@H](Oc2cc3c(Nc4ccc(Cl)c(Cl)c4F)ncnc3cc2OC)C1 [Compound 66]", "≤ 200 nM"],
  ["COc1cc2ncnc(Nc3ccc(Cl)c(Cl)c3F)c2cc1OC1CC(NC(=O)/C=C/CN(C)C)C1 (centres unmarked) [Compound 42]", "≤ 200 nM"]
]}
